test: Inhibition of CCR5 by cell-cell fusion inhibition assay
MEASURED PROPERTY: IC50 (nM)

compound="Cc1ncnc(C)c1C(=O)N1C[C@H]2CN(CCC(c3cccc(F)c3)C3CCN(CC(F)F)CC3)C[C@H]2C1 (stereo partly specified)" measured_property=IC50 measured_result=11

A. Cc1ncnc(C)c1C(=O)N1C[C@H]2CN(CCC(c3ccccc3)C3CCN(C(=O)CC(C)C)CC3)C[C@H]2C1 (stereo partly specified)
B. Cc1ncnc(C)c1C(=O)N1C[C@H]2CN(CCC(c3ccccc3)C3CCN(CC(F)(F)F)CC3)C[C@H]2C1 (stereo partly specified)
Task item: Decide: A or B , by lowest recorded IC50. Pick one; state its label.
Reply: B
(B: 34 nM, A: 2820 nM)

1. Cc1ncnc(C)c1C(=O)N1C[C@H]2CN(CCC(c3ccccc3)C3CN(C(=O)C4CCCC4)C3)C[C@H]2C1 (stereo partly specified)
2. Cc1ncnc(C)c1C(=O)N1C[C@H]2CN(CCC(c3ccccc3)C3CN(S(=O)(=O)C(C)C)C3)C[C@H]2C1 (stereo partly specified)
Task item: Decide: 1 or 2 , by lowest recorded IC50. Pick one; state its label.
Reply: 2
(2: 93 nM, 1: 2830 nM)
